Just for reference, patent US20040044000A1 is where these values come from.

# target.or.system: MMP-13 catalytic domain (MMP-13CD) (Homo sapiens, UniProt P45452)
# Construct: use the catalytic domain of the MMP-13 enzyme, namely matrix metalloproteinase-13 catalytic domain (“MMP-13CD”), rather than the corresponding full-length enzyme
# experiment.description: Inhibition of MMP-13 catalytic domain (thiopeptolide substrate hydrolysis)
# Type: biochemical
# test.context: Biological Table 2, compounds of Example 66; read-out: MMP-13CD IC50
measured.parameter: IC50 (µM)

Worked examples, 5 compounds total:
>>> recorded_measurement("CCOC(=O)CCCn1ccc2ccc(C#CCc3ccccc3)cc2c1=O [Example 66aa]")
12
>>> recorded_measurement("CCOC(=O)Cn1ccc2ccc(C#CCc3ccccc3)cc2c1=O [Example 66x]")
11
>>> recorded_measurement("CC(C)(CO)Cn1ccc2ccc(C#CCc3ccccc3)cc2c1=O [Example 66y]")
20
>>> recorded_measurement("O=c1c2cc(C#CCc3ccccc3)ccc2ccn1CC(F)(F)F [Example 66ah]")
24
>>> recorded_measurement("N#CCCCn1ccc2ccc(C#CCc3ccccc3)cc2c1=O [Example 66c]")
22.5

[1] CCC(=O)Cn1ccc2ccc(C#CCc3ccccc3)cc2c1=O [Example 66ab]
[2] O=c1c2cc(C#CCc3ccccc3)ccc2ccn1CC(O)CO (stereo not drawn) [Example 66e]
Challenge: Which gives the smaller IC50 number: 1 or 2 ? Select an item and report its label.
Response given: 1
(1: 12 µM, 2: 50 µM)

---

Notes on pIC50 obtained with MMP-14 catalytic domain (MMP-14CD) (Homo sapiens, UniProt P50281).
pIC50: −log10 of the molar value.

Worked examples, 6 compounds total:
>>> recorded_measurement("COc1cc(CNC(=O)c2ccc3ccn(Cc4ccc(S(C)(=O)=O)cc4)c(=O)c3c2)ccn1")
"< 4.00"
>>> recorded_measurement("CSc1ccc(CNC(=O)c2ccc3ccn(Cc4ccc(C#N)cc4)c(=O)c3c2)cc1")
"< 5.00"
>>> recorded_measurement("COc1cc(CNC(=O)c2ccc3ccn(Cc4ccc(C(=O)O)cc4)c(=O)c3c2)ccn1")
"< 4.00"
>>> recorded_measurement("COc1cccc(CNC(=O)c2ccc3ccn(Cc4ccc(S(C)(=O)=O)cc4)c(=O)c3c2)c1")
"< 4.00"
>>> recorded_measurement("O=C(NCc1ccncc1)c1ccc2ccn(Cc3ccc(-c4nn[nH]n4)cc3)c(=O)c2c1")
"< 4.00"
>>> recorded_measurement("O=c1c2cc(C#CCc3ccccc3)ccc2ccn1Cc1ccc(-c2nn[nH]n2)cc1")
"< 4.52"

Challenge: Report the value of pIC50 obtained on MMP-14 catalytic domain (MMP-14CD) (Homo sapiens, UniProt P50281) for `O=C(NN1CCCCC1)c1ccc(Cn2ccc3ccc(C#CCc4ccccc4)cc3c2=O)cc1` .
Response given: < 4.52

---

# target.or.system: MMP-13 catalytic domain (MMP-13CD) (Homo sapiens)
# Construct: use the catalytic domain of the MMP-13 enzyme, namely matrix metalloproteinase-13 catalytic domain (“MMP-13CD”), rather than the corresponding full-length enzyme
# experiment.description: Inhibition of MMP-13 catalytic domain (thiopeptolide substrate hydrolysis)
# Type: biochemical
# test.context: Biological Table 2, compounds of Example 66; read-out: MMP-13CD IC50
measured.parameter: IC50 (µM)

Worked examples, 2 molecules total:
>>> recorded_measurement("COc1ccc2nc(Cn3ccc4ccc(C#CCc5ccccc5)cc4c3=O)c(=O)oc2c1 [Example 66u]")
11
>>> recorded_measurement("CCOC(=O)CCCCn1ccc2ccc(C#CCc3ccccc3)cc2c1=O [Example 66s]")
8.7

[a] N#CCCCCCn1ccc2ccc(C#CCc3ccccc3)cc2c1=O [Example 66af]
[b] O=c1c2cc(C#CCc3ccccc3)ccc2ccn1CC1CCCO1 (stereo not shown) [Example 66i]
Challenge: Which gives the smaller IC50 number: a or b ? Select an item and report its label.
Response given: a
